Cited source for all entries: ChEMBL document CHEMBL2146467

- test.details: Chemical stability in simulated gastric fluid assessed as compound remaining at 50 uM after 15 mins by LC/MS analysis
- Format: physicochemical
- conditions.used: read-out: Stability
Recorded remaining at 0.25 h, 50 µM by entry
Number only, in %; omit the unit.

>>> df
                                   molecule  measured
0      Cc1ccn2c(C(=O)NCc3ccccc3Cl)c(C)nc2c1      97.2
1  CC(C)(C)c1cccc(C(C)(C)C)c1OC(=O)c1coc(-c2ccccc2)n1       1.3
2    COc1ccc(CNC(=O)c2c(C)nc3cc(C)ccn23)cc1       100
3  O=C(OCc1ccccc1)[C@@H]1COC(c2ccccc2OCc2ccccc2)=N1       0.8
4        Cc1ccn2c(C(=O)NCc3ccccc3)c(C)nc2c1       100
5  O=C(OCc1ccccc1C(F)(F)F)c1coc(-c2ccccc2)n1       0.8
6   Cc1ccc(Cl)c(OC(=O)c2coc(-c3ccccc3)n2)c1       0.9
7    O=C(Oc1cccc2c1CCCC2)c1coc(-c2ccccc2)n1       1.8

Request: Please look up its remaining at 0.25 h, 50 µM: `O=C(Oc1ccccc1)c1coc(-c2ccccc2)n1`
Result: 0.2

Request: Please look up its remaining at 0.25 h, 50 µM: `O=C(OCc1ccccc1)[C@@H]1COC(c2ccc(F)c([N+](=O)[O-])c2)=N1`
Result: 0.6

Request: Please look up its remaining at 0.25 h, 50 µM: `O=C(OCc1ccccc1)c1coc(-c2ccccc2OCc2ccccc2)n1`
Result: 2.9

Request: Please look up its remaining at 0.25 h, 50 µM: `CCCc1ccccc1OC(=O)c1coc(-c2ccccc2)n1`
Result: 0.9

Request: Please look up its remaining at 0.25 h, 50 µM: `O=C(OCC1CC1)c1coc(-c2ccccc2)n1`
Result: 1.5

Request: Please look up its remaining at 0.25 h, 50 µM: `O=C(Oc1ccccc1N1CCOCC1)c1coc(-c2ccccc2)n1`
Result: 0.7

Request: Please look up its remaining at 0.25 h, 50 µM: `CCc1ccccc1COC(=O)c1coc(-c2ccccc2)n1`
Result: 3.2

Request: Please look up its remaining at 0.25 h, 50 µM: `CCC(=O)c1ccccc1OC(=O)c1coc(-c2ccccc2)n1`
Result: 1.8

Request: Please look up its remaining at 0.25 h, 50 µM: `O=C(Oc1ccccc1C(F)(F)F)c1coc(-c2ccccc2)n1`
Result: 1.2

Request: Please look up its remaining at 0.25 h, 50 µM: `O=C(Oc1ccc(Cl)cc1Cl)c1coc(-c2ccccc2)n1`
Result: 0.8

Request: Please look up its remaining at 0.25 h, 50 µM: `O=C(Oc1c(Cl)cc(Cl)cc1Cl)c1coc(-c2ccccc2)n1`
Result: 1.3

Request: Please look up its remaining at 0.25 h, 50 µM: `CCc1ccccc1OC(=O)c1coc(-c2ccccc2)n1`
Result: 2.1

Request: Please look up its remaining at 0.25 h, 50 µM: `O=C(OCc1ccccc1)c1coc(-c2ccccc2)n1`
Result: 1.8

Request: Please look up its remaining at 0.25 h, 50 µM: `C[C@H](OC(=O)c1coc(-c2ccccc2)n1)c1ccccc1`
Result: 5

Request: Please look up its remaining at 0.25 h, 50 µM: `O=C(OCc1ccccc1)c1coc(-c2ccccc2Cl)n1`
Result: 1.1

Request: Please look up its remaining at 0.25 h, 50 µM: CCC(C)c1ccccc1OC(=O)c1coc(-c2ccccc2)n1 (centres undefined)
Result: 0.2

Request: Please look up its remaining at 0.25 h, 50 µM: `O=C(OC1CCCCC1)c1coc(-c2ccccc2)n1`
Result: 0.5

Request: Please look up its remaining at 0.25 h, 50 µM: `CCCCCCCCOC(=O)c1coc(-c2ccccc2)n1`
Result: 1.1

Request: Please look up its remaining at 0.25 h, 50 µM: `CCc1ccccc1COC(=O)c1c(C)nc2cc(C)ccn12`
Result: 100

Request: Please look up its remaining at 0.25 h, 50 µM: `O=C(OCc1ccccc1)c1coc(-c2ccc(F)c([N+](=O)[O-])c2)n1`
Result: 0.9
